# EXPERIMENTAL SYSTEM: T1, human MSLN-R3 protein (human, UniProt Q13421 487-598)
# T1 construct: also called hMSLN-R3
# T1 sequence (Q13421 495-606, form in doubt): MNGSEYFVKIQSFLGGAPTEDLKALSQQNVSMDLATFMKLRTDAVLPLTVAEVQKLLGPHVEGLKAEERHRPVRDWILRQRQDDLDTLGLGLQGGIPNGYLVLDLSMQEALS
# ASSAY: ELISA on coated antigen, antibody 0.0001 nM
TEST READOUT: OD450 (OD450)
Field: numeric (OD450). Do not append units.

Would you please look over these solved cases?
Tab110 (scFv, not shown: small tags and cut ends, also called YP218 VH-(G4S)3-VL-his antibody; positive control) scFv: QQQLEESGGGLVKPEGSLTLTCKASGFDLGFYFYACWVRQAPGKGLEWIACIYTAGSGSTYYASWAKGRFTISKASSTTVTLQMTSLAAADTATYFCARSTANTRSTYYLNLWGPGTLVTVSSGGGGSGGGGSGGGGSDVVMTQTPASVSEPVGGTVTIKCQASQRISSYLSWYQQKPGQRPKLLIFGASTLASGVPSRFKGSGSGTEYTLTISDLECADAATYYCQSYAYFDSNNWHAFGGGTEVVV = 0.05
F7.33.24-H1 (scFv, not shown: small tags and cut ends, also called S009-F7.33.24 humanized antibody VH1 + VL1) scFv: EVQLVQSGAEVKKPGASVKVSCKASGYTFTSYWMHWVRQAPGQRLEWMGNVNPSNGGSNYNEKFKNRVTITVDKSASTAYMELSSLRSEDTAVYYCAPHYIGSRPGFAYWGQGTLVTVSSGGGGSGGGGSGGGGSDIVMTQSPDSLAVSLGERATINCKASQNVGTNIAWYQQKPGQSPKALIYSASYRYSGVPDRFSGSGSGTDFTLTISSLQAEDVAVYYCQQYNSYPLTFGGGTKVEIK = 0.04

# input Given F7.33.24-H12 (scFv, not shown: small tags and cut ends, also called S009-F7.33.24 humanized antibody VH2a + VL3) scFv: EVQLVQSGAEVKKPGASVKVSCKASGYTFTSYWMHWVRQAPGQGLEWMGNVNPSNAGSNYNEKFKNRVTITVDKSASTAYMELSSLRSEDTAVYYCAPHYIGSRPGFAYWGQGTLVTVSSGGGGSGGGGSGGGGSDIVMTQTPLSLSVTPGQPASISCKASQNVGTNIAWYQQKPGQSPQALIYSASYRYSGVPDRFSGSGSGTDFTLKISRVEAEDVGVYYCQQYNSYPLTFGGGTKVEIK , state its recorded OD450.
# output 0.04
